- Tested on: upland rice (Oryza sp., var.Tebonnet, RICE)
- testProtocol: Pre-emerge test, crop damage upland rice
- Format: in vivo
- conditionDescription: var. Tebonnet, Oryza sp. (upland rice), in vivo, 14 days
Measured Pre-emerge crop damage RICE (phytotoxicity rating) accompanies every entry in the list below.
Reply with just the number.

- C[C@H]1Oc2cc(F)c(-c3nn(C)c(C(F)(F)F)c3Cl)c3c2N(CC(=O)N3)C1=O: 55
- CC1C(=O)Nc2c(-c3nn(C)c(OC(F)F)c3Cl)c(F)cc3c2N1C(=O)CO3 (stereo not shown): 100
- Cn1nc(-c2c(F)cc3c4c2NC(=O)C(C)(C)N4C(=O)CO3)c(Cl)c1C(F)(F)F: 40
- C[C@H]1Oc2cc(F)c(-c3nn(C)c(OC(F)F)c3Cl)c3c2N(CC(=O)N3)C1=O: 40
- Cn1nc(-c2c(F)cc3c4c2NC(=O)CN4C(=O)CO3)c(Cl)c1C(F)(F)F: 90
- Cn1nc(-c2c(F)cc3c4c2NC(=O)CN4C(=O)CO3)c(Cl)c1OC(F)F: 85

Which measured Pre-emerge crop damage RICE (phytotoxicity rating) value corresponds to Cn1nc(-c2c(F)cc3c4c2NC(=O)CN4C(=O)C(C)(C)O3)c(Cl)c1C(F)(F)F ? 0

---

- System: barnyardgrass (Echinachloa crus-galli, ECC)
- testProtocol: Post-emerge test, barnyardgrass
- Format: in vivo
- conditionDescription: 250 g ai/ha, 14 days after application, rating scale 0-100 (0 no damage, 100 complete death)
- Description: A standard greenhouse herbicide activity screening system was used to evaluate the herbicidal efficacy and crop safety of these test compounds. […] At 14 days after application of the test materials, phytotoxicity ratings were recorded. […]
Measured Post-emerge Herbicidal Activity ECC (phytotoxicity rating) accompanies every entry in the list below.
Reply with just the number.

• CCC1C(=O)Nc2c3c(cc(F)c2-n2nc(C)n(C(F)F)c2=O)OCC(=O)N31 (stereo not shown) = 0
• Cn1nc(-c2c(F)cc3c4c2NC(=O)CN4C(=O)C(C)(C)O3)c(Cl)c1OC(F)F = 99
• CC1C(=O)Nc2c(-c3nn(C)c(OC(F)F)c3Cl)c(F)cc3c2N1C(=O)C(C)(C)O3 (stereo not shown) = 98

Which measured Post-emerge Herbicidal Activity ECC (phytotoxicity rating) value corresponds to Cc1nn(-c2c(F)cc3c4c2NC(=O)C(C)N4C(=O)CO3)c(=O)n1C(F)F (stereo not shown) ? 0

---

- Tested on: soybean (Glycine max L., var. Pella 86, SOY)
- testProtocol: Post-emerge test, crop damage soybean
- Format: in vivo
- conditionDescription: post-emerge, 250 g ai/ha, 14 days after application, rating scale 0-100 (0 no damage, 100 complete death)
Measured Post-emerge crop damage SOY (phytotoxicity rating) accompanies every entry in the list below.
Reply with just the number.

- Cn1nc(-c2c(F)cc3c4c2NC(=O)C(c2ccccc2)N4C(=O)CO3)c(Cl)c1C(F)(F)F (centres unmarked): 25

Which measured Post-emerge crop damage SOY (phytotoxicity rating) value corresponds to CC1C(=O)Nc2c(-c3nn(C)c(C(F)(F)F)c3Cl)c(F)cc3c2N1C(=O)C(C)(C)O3 (centres unmarked) ? 45

Request: Cc1nn(-c2c(F)cc3c4c2NC(=O)CN4C(=O)CO3)c(=O)n1C(F)F 60

Request: O=C1Nc2c(-c3ncc(C(F)(F)F)cc3Cl)c(F)cc3c2N(C(=O)CO3)C1c1ccccc1 (centres unmarked) 10

Request: O=C1CN2C(=O)COc3cc(F)c(N4C(=O)C5=C(CCCC5)C4=O)c(c32)N1 55

Request: CC(C)C1C(=O)Nc2c3c(cc(F)c2-n2c(=O)cc(C(F)(F)F)n(C)c2=O)OCC(=O)N31 (centres unmarked) 10

Request: Cn1nc(-c2c(F)cc3c4c2NC(=O)C(Cl)N4C(=O)CO3)c(Cl)c1OC(F)F (centres unmarked) 0

Request: O=C1CN2C(=O)COc3cc(F)c(-n4nnn(CCCF)c4=O)c(c32)N1 0
